All figures here come from paper PMC8809517.

TESTED SYSTEM: T1, GFP-9S library array, motif 4 ND N98I;D124G (synthetic construct, N98I;D124G)
T1 chain: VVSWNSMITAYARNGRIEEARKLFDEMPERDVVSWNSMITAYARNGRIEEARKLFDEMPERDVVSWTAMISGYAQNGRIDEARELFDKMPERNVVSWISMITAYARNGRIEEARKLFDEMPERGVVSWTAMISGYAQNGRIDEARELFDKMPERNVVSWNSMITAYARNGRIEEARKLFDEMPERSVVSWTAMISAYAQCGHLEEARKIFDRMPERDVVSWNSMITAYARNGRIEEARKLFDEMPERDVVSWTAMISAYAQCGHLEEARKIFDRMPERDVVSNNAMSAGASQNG
METHOD NOTES: high-throughput RNA pulldown from lysate on Ni-NTA beads; HRP: 50 mM Tris pH 8, 150 mM NaCl, 1 mM beta-mercaptoethanol, 50 ug/ml BSA, 3 ug/ml yeast RNA, 0.5% heparin; ITC and FP: Tris pH 8, 200 mM KCl, 5% glycerol; MST: 50 mM Tris pH 8, 200 mM NaCl, 1 mM DTT, BSA, heparin, 0.05% Tween 20
EXPERIMENTAL PARAMETERS: tags: N-terminal His-eGFP; label: 5' IRDye 800CW
For each of the binders below, state its Kd.
Answers are plain numbers, in nM.

BINDER: AUUAUACGUGA (ssRNA) [IR-rpoA-U]
Kd, nM: 26.6

As a next step, examine the binder that follows.
**Query** What value of Kd has been reported for the following binder? AUUAAACGUGA (ssRNA) [IR-rpoA-A]
**Result** 40.6
